target: TLX (Homo sapiens); construct: encoding the hinge region and the LBD of the canonical isoform of the respective human nuclear receptors; expressed in transfected cells; host or cells: HEK293T; test: Gal4-hybrid reporter gene assay TLX; assay type: cell-based; conditions: selected test concentration (Figure 3)
Sequence (Q9Y466 155-383 limits assumed): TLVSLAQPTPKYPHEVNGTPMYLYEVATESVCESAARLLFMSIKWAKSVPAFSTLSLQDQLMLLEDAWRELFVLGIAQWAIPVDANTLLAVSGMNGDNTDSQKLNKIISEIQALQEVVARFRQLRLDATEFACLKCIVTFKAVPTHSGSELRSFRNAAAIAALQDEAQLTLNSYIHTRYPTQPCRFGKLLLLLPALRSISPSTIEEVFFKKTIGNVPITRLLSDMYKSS
readout_label: TLX modulation

QUERY: Reported TLX modulation for `Cc1cc(C(=O)N2CCN(C(c3ccccc3)c3ccccc3)CC2)nn1C` : what is it?
RESULT: not observed

QUERY: For `CC1(C)CC=C(c2ccccc2)c2cc(/C=C/c3ccc(C(=O)O)cc3)ccc21` , what is its reported TLX modulation?
RESULT: not observed

* * *

tested on: COS-7 cells; assay: Multiplex toxicity assay; type: cell-based; conditions: 24 h, at active concentration
readout_label: cytotoxicity

QUERY: Which measured cytotoxicity belongs to CCCCOc1cc(C(=O)Nc2cc(-n3cnc(C)c3)cc(C(F)(F)F)c2)c2ccccc2n1 [compound 19] , tested on COS-7 cells?
RESULT: non-toxic

QUERY: Fill in the recorded cytotoxicity for this molecule, with COS-7 cells as test system: Cn1c(=O)c2[nH]c(-c3ccccc3)nc2n(C)c1=O [compound 21, 8-Phenyl-theophylline]
RESULT: non-toxic

QUERY: Query cytotoxicity on COS-7 cells for C=CC1=C(C)/C(=C/C2=NC(=C\c3[nH]c(/C=C4\NC(=O)C(C)=C4C=C)c(C)c3CCC(=O)O)/C(CCC(=O)O)=C2C)NC1=O [compound 25, biliverdin]
RESULT: lack of cytotoxicity

QUERY: COS-7 cells / cytotoxicity / COc1cc2nc(CN3CC=C(c4ccccc4)CC3)nc(O)c2cc1OC [compound 23] : value?
RESULT: lack of cytotoxicity

Shifting focus to the molecule that follows.
QUERY: Can you look up cytotoxicity on COS-7 cells for Cc1cc(C)cc(NC(=O)CCc2nc3sc4c(c3c(=O)[nH]2)CCCC4)c1 [compound 22] ?
RESULT: lack of cytotoxicity
